# Neutralization of wild type JCV, EC50 [pM] listing for each entry below
- system: JCV major capsid protein VP1, wild type (John Cunningham virus (JCV), UniProt P03089 1-354)
- procedure text: cell-based or functional assay
Use pM as the unit, but write only the number.

See these solved cases before continuing.
• 1H10 (antibody, V domains shown) VH: EVQLLESGGGLVQPGGSLRLSCAASGFTLSTYAMSWVRQAPGKGLEWVSAISGTGLSTYYADSLKGRFTISRDISKNTLYLQMSSLKAEDTAVYYCAKGLELFYFYYGMDVWGQGTTVTVSS VL: EIVLTQSPGTLSLSPGERATLSCRASQSVSSTYLAWYQQKPGQAPRLLIYGTSSRATGIPDRFSGSGSGTDFTLTISRLEPEDLAVYYCQQYGRSLIFGQGTRLEIK = 155
• 3D2 (antibody, V domains shown) VH: QVQLQQWGAGLLKPSETLSLTCAVFGGSFSSYYWSWIRHPPGKGLEWIGDINHSGSTNYNPSLKSRVTLSVDTSKNQFSLKVTSVTAADTAVYYCARWGIAADYGMDVWGQGTTVTVSS VL: EIVLTQSPGTLSLSPGERATLSCRASQSVSSSYLAWYQQKPGQAPRLLIYGASSRATGIPDRFSDSGSGTDFTLTISRLEPEDFALYYCQQYGTSPWTFGQGTKVEIK = 2250

Consider the record given below.
Which value of Neutralization of wild type JCV, EC50 [pM] has been reported for 1E12 (antibody, V domains shown) VH: QVQLVESGGGLVKPGGSLRLSCTASGFTFSDHYMSWIRQAPGKGLEWVSYISTGGRTIYYADSVKGRFTISRDNAKNSLYLQMNSLRAEDTAVYYCASDYYDNVGWDYWGQGTLVTVSS VL: DVVLTQSPLSLPVTLGQPASISCRSSQSLIYSDGNTYLNWFQQRPGQSPRRLIYKVSDRDSGVPDRFSGSGSGTDFTLKISRVEAEDVGVYYCMQGTHWPRTFGQGTKVEIK in the records?
16
